# SYSTEM_TESTED: MMP-14 (Homo sapiens)
# Construct: The catalytic domain enzyme was expressed in E. coli inclusion bodies, solubilized in urea; made in house
# ASSAY_OVERVIEW: In vitro MMP inhibition, Ki determination (fluorogenic substrate II)
# Type: biochemical
# MEASUREMENT_CONTEXT: value outside parentheses; read-out: MMP-14 Ki
MEASURE: Ki (µM)

P: O=C(NO)C1(S(=O)(=O)N2CCC(COCc3ccc(C(F)(F)F)cc3)CC2)CCOCC1
Q: CCCCOc1ccc(N2CCN(S(=O)(=O)C3(C(=O)NO)CCN(C(=O)C(C)C)CC3)CC2)cc1
Between P and Q , which one has the lower reported Ki value? Indicate which entry you chose by stating its label.
P

====

# SYSTEM_TESTED: MMP-1 (Homo sapiens)
# Construct: made in house; host or cells: MMP-1-transfected HT-1080 cells (spent media)
# ASSAY_OVERVIEW: In vitro MMP inhibition, Ki determination (fluorogenic substrate II)
# Format: biochemical
# MEASUREMENT_CONTEXT: human recombinant enzyme; 4 μM substrate II; room temperature, 1 hr; read-out: MMP-1 Ki
# Description: Several hydroxamic acids and salts thereof were analyzed in in vitro assays to determine their ability to inhibit the MMP cleavage of peptide substrates. […] and IC50 constants were calculated from the assayed hydroxamic acid-MMP interactions. […] The assays from which the Ki determinations were made were performed as follows. […] In the absence of MMP inhibitory activity, substrate II was cleaved at the Gly-Leu bond resulting in an increase of relative fluorescence. […]
Structures can show the parent of a compound that is named as a salt.
In this section, each of the molecules is paired with its reported Ki.

A selection of reference data follows.
{"MOLECULE": "CCCCc1ccc(C2CCN(S(=O)(=O)C3(C(=O)NO)CCN(C4CC4)CC3)CC2)nc1 [Example 24, Hydrochloride]", "Ki": "> 10 µM"}
{"MOLECULE": "O=C(NO)C1(S(=O)(=O)N2CCC(c3ccc(OCC(F)(F)F)cc3)CC2)CCN(C2CC2)CC1 [Example 25, Hydrochloride]", "Ki": "> 10 µM"}
{"MOLECULE": "O=C(NO)C1(S(=O)(=O)N2CCN(c3ccc(-c4ccccc4)c(F)c3)CC2)CCOCC1 [Example 12, Hydrochloride]", "Ki": "> 10 µM"}
{"MOLECULE": "CCCCc1ccc(C2CCN(S(=O)(=O)C3(C(=O)NO)CCOCC3)CC2)s1 [Example 19]", "Ki": "> 10 µM"}
{"MOLECULE": "CCOc1ccc(N2CCN(S(=O)(=O)C3(C(=O)NO)CCOCC3)CC2)cc1 [Example 3]", "Ki": "7.53 µM"}

Determine reported Ki for COCCN1CCC(C(=O)NO)(S(=O)(=O)N2CCC(c3ccc(OCCCC(F)(F)F)cc3)CC2)CC1 [Example 20, Hydrochloride] ; test system: MMP-1 (Homo sapiens).
> 10 µM

Determine reported Ki for CCCCCCCCC1CCN(S(=O)(=O)C2(C(=O)NO)CCOCC2)CC1 [Example 26] ; test system: MMP-1 (Homo sapiens).
2.97 µM

====

# SYSTEM_TESTED: MMP-1 (Homo sapiens, UniProt P03956)
# Construct: made in house; host or cells: MMP-1-transfected HT-1080 cells (spent media)
# Sequence (P03956 100-469): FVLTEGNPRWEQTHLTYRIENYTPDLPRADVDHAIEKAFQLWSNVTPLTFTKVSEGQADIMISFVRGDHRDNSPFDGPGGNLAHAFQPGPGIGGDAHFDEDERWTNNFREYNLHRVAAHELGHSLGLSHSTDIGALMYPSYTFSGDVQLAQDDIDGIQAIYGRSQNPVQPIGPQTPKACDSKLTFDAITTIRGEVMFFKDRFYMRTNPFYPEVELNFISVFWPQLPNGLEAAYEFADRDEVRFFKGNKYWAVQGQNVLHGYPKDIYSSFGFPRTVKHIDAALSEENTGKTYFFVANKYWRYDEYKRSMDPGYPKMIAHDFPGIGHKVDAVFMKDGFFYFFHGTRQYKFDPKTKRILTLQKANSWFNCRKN
# ASSAY_OVERVIEW: In vitro MMP inhibition, Ki determination (fluorogenic substrate II)
# Assay type: biochemical
# MEASUREMENT_CONTEXT: MMP-1 Ki, value not in parenthesis
MEASURE: Ki

{"COMPOUND": "O=C(NO)C1(S(=O)(=O)N2CCN(c3ccc(COCC(F)(F)C(F)(F)C(F)(F)C(F)F)cc3)CC2)CCOCC1 [Example 68]", "MEASURE": "Ki", "RESULT": "> 10 µM"}

Please examine the following record next.
Specify reported Ki for the compound shown: O=C(NO)C1(S(=O)(=O)N2CCN(c3ccc(COCC(F)(F)C(F)(F)C(F)(F)F)cc3)CC2)CCOCC1 [Example 69]
> 10 µM
